Assay: NCI Yeast Anticancer Drug Screen. Data for the rad50 strain (AID 155);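 also: 0% = growth of vehicle-only cultures of the same strain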
Settings: S. cerevisiae rad50 strain growth inhibition; at 50.0 µM; stronger effect = higher value
About 79,000 compounds went through this panel and 15% of them were active in at least one assay; those are over-represented in the sample as a whole.
metric_name: growth inhibition (%)
Give a bare numeral; the unit % is implied.

Using the record for C/C(=N/NC(=S)Nc1ccccc1C)c1ccccn1 , report its growth inhibition.
78

----------
Experiment: NCI Yeast Anticancer Drug Screen. Data for the mlh1 strain (AID 171);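 also: 0% = growth of vehicle-treated control cultures of the same strain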
Details: S. cerevisiae mlh1 strain growth inhibition; at 11.0 µM; stronger effect = higher value
Compounds without any hit were thinned out: in the full panel of roughly 79,000, 15% have a hit. Activity calls are given as the source filed them. Cut-off read from the data, not from the text of the source: active = growth inhibition above about 70%; inactive = the rest.
metric_name: growth inhibition

Worked cases, answers included:
Using the record for NC(N)=NC(N)=Nc1ccccc1 (tested in a mixture with another compound) , report its growth inhibition.
5% (inactive)

Follow-up entry: O=C(NCCNCCNC(=O)c1cc(-c2ccccc2)nc2ccccc12)c1cc(-c2ccccc2)nc2ccccc12
-2% (inactive)

Further cases:
Using the record for CCOC(=O)/C(=C\c1ccc(F)cc1)C(C)=O , report its growth inhibition.
88% (active)

Follow-up entry: COc1ccc(-c2cc(-c3cc(C)cc(Cl)c3O)nc3[nH]c(=S)[nH]c(=S)c23)cc1
0% (inactive)

----------
Assay: NCI Yeast Anticancer Drug Screen. Data for the bub3 strain (AID 167)
Conditions: S. cerevisiae bub3 mutant strain, at 5.0 µM (retest, dose inferred, filed as 0.5), stronger effect = higher value
About 79,000 compounds went through this panel and 15% of them were active in at least one assay; those are over-represented in the sample as a whole.
metric_name: growth inhibition (%)
Give a bare numeral; the unit % is implied.

Worked cases, answers included:
Using the record for O=Cc1ccccc1C=O , report its growth inhibition.
-32

Follow-up entry: CNC(=O)OCc1c(COC(=O)NC)c(C)n(-c2ccc(Br)cc2)c1C
0

Follow-up entry: CC(/C=C/c1ccc([N+](=O)[O-])o1)=N/N1CC(CN2CCOCC2)OC1=O (stereo unspecified)
3

Follow-up entry: Cc1cccc(C)c1NC(=O)CCC(=O)C(C)C(=O)c1ccc(O)cc1 (stereo unspecified)
0

Further cases:
Using the record for O=C(O)C1CCCCC1c1c2ccc(=O)cc-2oc2cc(O)ccc12 (stereo unspecified) , report its growth inhibition.
44

Follow-up entry: O=C(Cc1ccccc1)NN1C(=O)C(Cl)C1c1cc(Br)cc(Br)c1O (stereo unspecified)
98

Follow-up entry: CCCCS(=O)(=O)Nc1ccc(Nc2c3ccccc3nc3ccccc23)c(OC)c1
43

----------
Experiment: NCI Yeast Anticancer Drug Screen. Data for the rad14 strain (AID 159);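 also: 0% = growth of vehicle-treated control cultures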
Settings: S. cerevisiae rad14 strain growth inhibition; at 33.0 µM; stronger effect = higher value
Compounds without any hit were thinned out: in the full panel of roughly 79,000, 15% have a hit.
metric_name: growth inhibition (%)
Give a bare numeral; the unit % is implied.

Using the record for O=C1c2cccc3cccc(c23)C(=O)N1CCNCCN1C(=O)c2cccc3cccc(c23)C1=O , report its growth inhibition.
-1

Follow-up entry: O=C(NNc1ccccc1)C(CCCCNS(=O)(=O)Cc1ccccc1)NS(=O)(=O)Cc1ccccc1 (stereo not drawn)
13

Follow-up entry: COC(=N)c1ccc(O)c(C)c1
-4

Follow-up entry: COc1ccc2nc3cccc([N+](=O)[O-])c3c(NCCNCCN(C)C)c2c1
1

Further cases:
Using the record for O=C(NCCCCN(CCCNC(=O)C(F)(F)F)Cc1ccccc1)C(F)(F)F , report its growth inhibition.
11

Follow-up entry: CCC(/C=C/c1ccccc1)=N\Nc1ccc(Cl)c(Cl)c1
10

Follow-up entry: COc1ccc2c(c1)CCCC(Br)C2=O (stereo not drawn)
64

Follow-up entry: Cc1cc(C)c(S(=O)(=O)c2ccc(Cl)cc2)c(C)c1
-8

Follow-up entry: CCc1c(Cl)c(C)c(Cl)c(O)c1Cl
98

Follow-up entry: Cc1cccc(C)c1NC(=O)CCC(=O)C(C)C(=O)c1ccc(O)cc1 (stereo not drawn)
0

Follow-up entry: Cc1ccc(S(=O)(=O)N/N=C/C(Br)=C(/Br)C(=O)O)cc1
97

Follow-up entry: O=C1Nc2ccc(Br)cc2C1=Nc1cccnc1
-48

Follow-up entry: Fc1ccc(Nc2ccc3ccccc3c2)cc1
55

Follow-up entry: CC(C)(C)c1ccc2c(c1)C(=O)c1ccccc1C2=O
2

Follow-up entry: CCC[CH2][Sn]([CH2]CCC)([CH2]CCC)/[C](=C/[Si](C)(C)c1ccccc1)c1ccc2c(c1)OCO2
93

Follow-up entry: CCN(CC)CCCNc1ccc([N+](=O)[O-])c2nc3ccc(OC)cc3c(NCCCN(CC)CC)c12
0

Follow-up entry: CN(C)CCNC(=Cc1ccc2ccccc2[n+]1C)NCCN(C)C
-3

Follow-up entry: c1ccc2nc3c(nc2c1)sc1ccccc13
39

Follow-up entry: CC(C)(CN1CCCCC1)C(=O)/C=C/c1c(Cl)cccc1Cl
99
